Origin of the recorded values: PubChem BioAssay (NCI)

Reported GI50 values for a set of compounds
- System: MALME-3M melanoma
- protocol_description: NCI tumour cell line growth inhibition, 48 h

Example results:
C=C1C(=O)O[C@H]2[C@H]1CC/C(COC(=O)c1cc3cc(Cl)ccc3[nH]1)=C\CC[C@@]1(C)O[C@@H]21; 1.63 µM
Cc1cc(S(=O)(=O)NC#N)c(S/C(=N\Nc2ccc([N+](=O)[O-])cc2)c2ccc(Cl)cc2)cc1Cl; 24.4 µM
CC[C@H](Nc1nc(C)nc(N)c1C#N)c1nc2cccc(NCc3ccc(C(=O)NO)cc3)c2c(=O)n1-c1ccccc1; 1.48 µM
O=C(O)c1ccc2c(c1)CCCC(c1ccc(Cl)cc1Cl)=C2c1ccc(O[C@H]2CCN(CCCF)C2)cc1; 14.7 µM
Cc1c(C(=O)NCCN2CCOCC2)cn2ncnc(Oc3ccc(NC(=O)Nc4ccc(Cl)c(C(F)(F)F)c4)cc3)c12; 1.09 µM
COc1cc(-c2cn(-c3ccc(Cl)c(Cl)c3)c(=O)n2C(C)=O)cc(OC)c1OC; 15.3 µM
CC[O-].CC[O-].O=S(=O)([O-])c1ccc([O-])c2ncccc12.O=S(=O)([O-])c1ccc([O-])c2ncccc12.[Ti+4]; > 100 µM

// below: GI50 requested for another compound
For NC(N)=NCCC1OC(=O)C2=C1c1c(O)ccc3nccc(c13)O2 (stereo not drawn) , write its GI50.
> 100 µM
